- Assay Protocol: Clearance in CD1 mouse at 10 mg/kg, iv by HPLC coupled to tandem mass spectrometry
- Format: ADME, organism-based
- Reported Conditions: in vivo
Reported Endpoint: clearance (mL/min/kg)

1) O=C(O)c1cnc(Oc2ccc3c(c2)B(O)OC3)cn1 :: 38.8

###

- Assay Protocol: AUC (0 to 2 hrs) in CD1 mouse at 30 mg/kg, po by HPLC coupled to tandem mass spectrometry
- Format: ADME, organism-based
- Design: dose 30 mg/kg, time < 2 hr, route oral
- Reported Conditions: in vivo
Reported Endpoint: AUC(0-t) at 2 h (ng·h/mL)

1. O=C(O)c1cnc(Oc2ccc3c(c2)B(O)OC3)cn1 :: 8620

###

- Assay Protocol: Volume of distribution at steady state in CD1 mouse at 10 mg/kg, iv by HPLC coupled to tandem mass spectrometry
- Assay type: ADME, organism-based
- Reported Conditions: in vivo, read-out: Vdss
Reported Endpoint: Vd (L/kg)

1) O=C(O)c1cnc(Oc2ccc3c(c2)B(O)OC3)cn1 :: 0.848

###

- System: Plasmodium berghei
- Assay Protocol: Antiplasmodial activity against Plasmodium berghei infected in Swiss Webster mouse assessed as mouse survival at 100 mg/kg, po dosed once daily for 4 consecutive days beginning 1 hr after initial infection and measured on day 9 post infection by Giemsa staining method
- Type: functional
# reported survival at 100 mg/kg; entries follow
Reported Endpoint: survival at 100 mg/kg (%)

1. NC(=O)c1cnc(Oc2ccc3c(c2)B(O)OC3)cn1 :: 60
2. O=C(O)c1cnc(Oc2ccc3c(c2)B(O)OC3)cn1 :: 60
3. O=C(O)c1ccc(Oc2ccc3c(c2)B(O)OC3)cn1 :: 0
4. COC(=O)c1cnc(Oc2ccc3c(c2)B(O)OC3)cn1 :: 100

###

- Test system: Plasmodium berghei
- Assay Protocol: Antiplasmodial activity against Plasmodium berghei infected in Swiss Webster mouse assessed as mouse survival at 100 mg/kg, po dosed once daily for 4 consecutive days beginning 1 hr after initial infection and measured on day 8 post infection by Giemsa staining method
- Assay type: functional
Reported Endpoint: survival at 100 mg/kg

1) NC(=O)c1cnc(Oc2ccc3c(c2)B(O)OC3)cn1 :: 100%
2) O=C(O)c1cnc(Oc2ccc3c(c2)B(O)OC3)cn1 :: 100%
3) COC(=O)c1cnc(Oc2ccc3c(c2)B(O)OC3)cn1 :: 100%
4) O=C(O)c1ccc(Oc2ccc3c(c2)B(O)OC3)cn1 :: 80%

###

- Test system: Plasmodium berghei
- Assay Protocol: Antiplasmodial activity against Plasmodium berghei infected in Swiss Webster mouse assessed as […] dosed orally once daily for 4 consecutive days beginning 1 hr after initial infection and measured on day 4 after onset of treatment by Giemsa staining method
- Type: functional
- Reported Conditions: po
# reported ED90; entries follow
Reported Endpoint: ED90 (mg/kg)

1) COC(=O)c1cnc(Oc2ccc3c(c2)B(O)OC3)cn1 :: 7
2) NC(=O)c1cnc(Oc2ccc3c(c2)B(O)OC3)cn1 :: 38.7
3) O=C(O)c1cnc(Oc2ccc3c(c2)B(O)OC3)cn1 :: 30.3
4) O=C(O)c1ccc(Oc2ccc3c(c2)B(O)OC3)cn1 :: 21.1

###

- Assay Protocol: AUC (0 to infinity) in CD1 mouse at 5 mg/kg, po by HPLC coupled to tandem mass spectrometry
- Format: ADME, organism-based
- Parameters: dose 5 mg/kg, route oral, time infinity
- Reported Conditions: in vivo
# reported AUC(0-inf); entries follow
Reported Endpoint: AUC(0-inf) (ng·h/mL)

1. COC(=O)c1cnc(Oc2ccc3c(c2)B(O)OC3)cn1 :: 100
2. NC(=O)c1cnc(Oc2ccc3c(c2)B(O)OC3)cn1 :: 2290

###

- Assay Protocol: Tmax in CD1 mouse at 5 mg/kg, po by HPLC coupled to tandem mass spectrometry
- Type: ADME, organism-based
- Reported Conditions: in vivo
Reported Endpoint: Tmax (min)

1. COC(=O)c1cnc(Oc2ccc3c(c2)B(O)OC3)cn1 :: 15
2. NC(=O)c1cnc(Oc2ccc3c(c2)B(O)OC3)cn1 :: 15

###

- Assay Protocol: Terminal half life in CD1 mouse at 30 mg/kg, po by HPLC coupled to tandem mass spectrometry
- Type: ADME, organism-based
- Reported Conditions: in vivo, read-out: beta t1/2 (converted)
Reported Endpoint: half-life (min)

1. O=C(O)c1cnc(Oc2ccc3c(c2)B(O)OC3)cn1 :: 13.8

###

# reported Vd; entries follow
- Assay Protocol: Volume of distribution at steady state in CD1 mouse at 5 mg/kg, iv by HPLC coupled to tandem mass spectrometry
- Type: ADME, organism-based
- Reported Conditions: in vivo, read-out: Vdss
Reported Endpoint: Vd (L/kg)

1) NC(=O)c1cnc(Oc2ccc3c(c2)B(O)OC3)cn1 :: 0.973
2) COC(=O)c1cnc(Oc2ccc3c(c2)B(O)OC3)cn1 :: 0.926

###

- Test system: Plasmodium falciparum
- Assay Protocol: Antimalarial activity against chloroquine-resistant Plasmodium falciparum W2 cultured in human erythrocytes assessed as inhibition of parasite growth incubated for 48 hrs by YOYO-1 staining based flow cytometry
- Assay type: functional, organism-based
- Reported Conditions: W2, 48 h
# reported IC50; entries follow
Reported Endpoint: IC50 (nM)

1. N#Cc1cnc(Oc2ccc3c(c2)B(O)OC3)cn1 :: 470
2. O=C(O)c1ccc(Oc2ccc3c(c2)B(O)OC3)cn1 :: 170
3. CC(C)S(=O)(=O)NC(=O)c1cnc(Oc2ccc3c(c2)B(O)OC3)cn1 :: 190

###

- Tested on: Plasmodium berghei
- Assay Protocol: Antiplasmodial activity against Plasmodium berghei infected in Swiss Webster mouse assessed as mouse survival at 100 mg/kg, po dosed once daily for 4 consecutive days beginning 1 hr after initial infection and measured on day 6 post infection by Giemsa staining method
- Type: functional
# reported survival at 100 mg/kg; entries follow
Reported Endpoint: survival at 100 mg/kg (%)

1) COC(=O)c1cnc(Oc2ccc3c(c2)B(O)OC3)cn1 :: 100
2) O=C(O)c1cnc(Oc2ccc3c(c2)B(O)OC3)cn1 :: 100
3) O=C(O)c1ccc(Oc2ccc3c(c2)B(O)OC3)cn1 :: 100
4) NC(=O)c1cnc(Oc2ccc3c(c2)B(O)OC3)cn1 :: 100

###

- Assay Protocol: Clearance in CD1 mouse at 5 mg/kg, iv by HPLC coupled to tandem mass spectrometry
- Assay type: ADME, organism-based
- Reported Conditions: in vivo
Reported Endpoint: clearance (mL/min/kg)

1. COC(=O)c1cnc(Oc2ccc3c(c2)B(O)OC3)cn1 :: 208
2. NC(=O)c1cnc(Oc2ccc3c(c2)B(O)OC3)cn1 :: 37.7

###

- Assay Protocol: AUC (0 to infinity) in CD1 mouse at 10 mg/kg, iv by HPLC coupled to tandem mass spectrometry
- Assay type: ADME, organism-based
- Design: dose 10 mg/kg, route intravenous, time infinity
- Reported Conditions: in vivo
Reported Endpoint: AUC(0-inf) (ng·h/mL)

1) O=C(O)c1cnc(Oc2ccc3c(c2)B(O)OC3)cn1 :: 4300

###

- Assay Protocol: Cmax in CD1 mouse at 5 mg/kg, po by HPLC coupled to tandem mass spectrometry
- Type: ADME, organism-based
- Design: dose 5 mg/kg, route oral
- Reported Conditions: in vivo
# reported Cmax; entries follow
Reported Endpoint: Cmax (ng/mL)

1. COC(=O)c1cnc(Oc2ccc3c(c2)B(O)OC3)cn1 :: 160
2. NC(=O)c1cnc(Oc2ccc3c(c2)B(O)OC3)cn1 :: 1380

###

- Test system: Plasmodium falciparum
- Assay Protocol: Antimalarial activity against chloroquine-sensitive Plasmodium falciparum 3D7 cultured in human erythrocytes incubated for 72 hrs by [3H]-hypoxanthine incorporation assay
- Type: functional, organism-based
pIC50: −log10 of the molar value.
Reported Endpoint: pIC50

1. O=C(O)c1cnc(Oc2ccc3c(c2)B(O)OC3)cn1 :: 6.52

###

- Assay Protocol: AUC (0 to infinity) in CD1 mouse at 5 mg/kg, iv by HPLC coupled to tandem mass spectrometry
- Type: ADME, organism-based
- Design: dose 5 mg/kg, route intravenous, time infinity
- Reported Conditions: in vivo
Reported Endpoint: AUC(0-inf) (ng·h/mL)

1. COC(=O)c1cnc(Oc2ccc3c(c2)B(O)OC3)cn1 :: 400
2. NC(=O)c1cnc(Oc2ccc3c(c2)B(O)OC3)cn1 :: 2200

###

- System: Plasmodium falciparum
- Assay Protocol: Antimalarial activity against chloroquine-resistant Plasmodium falciparum W2 cultured in human erythrocytes assessed as inhibition of parasite growth incubated for 48 hrs by YOYO-1 staining based flow cytometry
- Type: functional, organism-based
- Reported Conditions: W2, 48 h
pIC50: −log10 of the molar value.
Reported Endpoint: pIC50

1. CCCCOC(=O)c1cnc(Oc2ccc3c(c2)B(O)OC3)cn1 :: 9.70
2. OB1OCc2ccc(Oc3cnccn3)cc21 :: 5.03
3. NC(=O)c1cnc(Oc2ccc3c(c2)B(O)OC3)cn1 :: 6.68
4. O/N=C/c1cnc(Oc2ccc3c(c2)B(O)OC3)cn1 :: 5.75
5. CNC(=O)c1cnc(Oc2ccc3c(c2)B(O)OC3)cn1 :: 6.62
6. CC(C)(C)OC(=O)c1cnc(Oc2ccc3c(c2)B(O)OC3)cn1 :: 7.72
7. CC(C)COC(=O)c1cnc(Oc2ccc3c(c2)B(O)OC3)cn1 :: 9.30
8. C[C@@H]1CC[C@H]2[C@@H](C)C(=O)O[C@@H]3O[C@@]4(C)CC[C@@H]1[C@]32OO4 :: 8.22
9. O=C(O)c1cnc(Oc2ccc3c(c2)B(O)OC3)cn1 :: 6.82
